Data credit: patent US9867869B2

Attribute: Complex %
procedure_details: 11B NMR complexation efficiency with 4-carboxyphenylboronic acid
Type: physicochemical
cond: pH 7.4, PBA:Diol 1:2, PBA 10 mM, PBS 0.1M, 37° C.
I only need the number, in %, no unit after it.

# structure_as_smiles, Complex % / %
rows = [
    ("O=C[C@H](O)[C@@H](O)[C@H](O)[C@H](O)CO", 11.0),
]

Which measured Complex % value corresponds to "[N-]=[N+]=NC[C@@H](O)[C@H](O)[C@H](O)[C@@H](O)C=O" ?
17.6

Which Complex % value belongs to "O=C(CO)[C@@H](O)[C@H](O)[C@H](O)CO" ?
34.9

====

procedure_details: 11B NMR complexation efficiency with 4-carboxyphenylboronic acid
Assay type: physicochemical
cond: pH 7.4, PBA:Diol 1:2, PBA 10 mM, PBS 0.1M, 37° C.
measured_quantity: Complex % (%)
I only need the number, in %, no unit after it.

// known answers, use as guide
# molecule, measured_quantity, test_value
rows = [
    ("[N-]=[N+]=N[C@H]1O[C@H](CO)[C@@H](O)[C@H](O)[C@@H]1O [Alpha-D-Mannopyranosyl azide]", "Complex %", 4.2),
    ("[N-]=[N+]=N[C@@H]1O[C@H](CO)[C@@H](O[C@@H]2O[C@H](CO)[C@H](O)[C@H](O)[C@H]2O)[C@H](O)[C@H]1O [1-Azido-1-deoxy-beta-D-lactopyranoside]", "Complex %", 4.0),
    ("[N-]=[N+]=Nc1nc2c(N)ncnc2n1[C@@H]1O[C@H](CO)[C@@H](O)[C@H]1O [8-Azido-Adenoside]", "Complex %", 47.6),
]

Param item = NCCc1ccc(O)c(O)c1 [Dopamine] ; retrieve measured Complex %.
38.7

====

procedure_details: 11B NMR complexation efficiency with 4-carboxyphenylboronic acid
Assay type: physicochemical
cond: pH 8.5, PBA:Diol 1:2, PBA 10 mM, PBS 0.1M, 37° C.
measured_quantity: Complex %
Remember to put the unit after the number in your answer.

# molecule, Complex %
rows = [
    ("NCCc1ccc(O)c(O)c1 [Dopamine]", "100.0%"),
    ("[N-]=[N+]=N[C@H]1O[C@H](CO)[C@@H](O)[C@H](O)[C@@H]1O [Alpha-D-Mannopyranosyl azide]", "22.5%"),
    ("O=C[C@H](O)[C@@H](O)[C@H](O)[C@H](O)CO [Glucose]", "49.4%"),
    ("[N-]=[N+]=NC[C@@H](O)[C@H](O)[C@H](O)[C@@H](O)C=O [6-azido-6-deoxy-D-galactose]", "74.9%"),
]

Report Complex % for [N-]=[N+]=N[C@@H]1O[C@H](CO)[C@@H](O[C@@H]2O[C@H](CO)[C@H](O)[C@H](O)[C@H]2O)[C@H](O)[C@H]1O [1-Azido-1-deoxy-beta-D-lactopyranoside] please.
8.3%

Requested read-out: Complex %. Entry: [N-]=[N+]=Nc1nc2c(N)ncnc2n1[C@@H]1O[C@H](CO)[C@@H](O)[C@H]1O [8-Azido-Adenoside]
61.6%

Name the reported Complex % value associated with the molecule O=C(CO)[C@@H](O)[C@H](O)[C@H](O)CO [Frucrose]
67.3%
